System: Leishmania donovani
Test: In-vitro antileishmanial activity was tested against extracellular promastigotes of Leishmania donovani at dose of 50 ug/mL
Format: functional
inhibition at 50 µg/mL values for the compounds below.
QUANTITY: inhibition at 50 µg/mL (%)

[[record]]
smiles_code = "CC1(C)C=Cc2c(ccc(C(=O)CCc3ccc(O)cc3)c2O)O1"
measured_on = "Leishmania donovani"
quantitative_result = 89

[[record]]
smiles_code = "COc1ccc(/C=C/C(=O)c2ccc3c(c2O)C=CC(C)(C)O3)cc1"
measured_on = "Leishmania donovani"
quantitative_result = 85

[[record]]
smiles_code = "CC1(C)C=Cc2c(ccc(C(=O)CCc3ccc(O)c(O)c3)c2O)O1"
measured_on = "Leishmania donovani"
quantitative_result = 30

[[record]]
smiles_code = "CC1(C)C=Cc2c(ccc(C(=O)/C=C/c3ccc(O)cc3)c2O)O1"
measured_on = "Leishmania donovani"
quantitative_result = 84

[[record]]
smiles_code = "COc1ccc(/C=C/C(=O)c2ccc(O)cc2O)cc1"
measured_on = "Leishmania donovani"
quantitative_result = 60

[[record]]
smiles_code = "COc1ccc(CCC(=O)c2ccc3c(c2O)C=CC(C)(C)O3)cc1"
measured_on = "Leishmania donovani"
quantitative_result = 78

[[record]]
smiles_code = "COc1ccc(CCC(=O)c2ccc(O)cc2O)cc1OC"
measured_on = "Leishmania donovani"
quantitative_result = 79

